Recorded values, source ChEMBL document CHEMBL5244225.

System: Nakaseomyces glabratus
Test: Antifungal activity against Candida glabrata ATCC 90030 assessed as inhibition of microbial growth incubated for 24 hrs by broth microdilution method
Format: functional, organism-based
Conditions: ATCC 90030, 24 h
observation.type: IC50 (µg/mL)
Note: unit µg/mL is implicit; provide only the numeric part.

Example entries begin here.
compound | system.name | IC50 / µg/mL
O=c1cc(-c2ccc(O)c(O)c2)oc2cc(O)cc(O)c12 [LUTEOLIN] | Nakaseomyces glabratus | 15
O=C(O)/C=C/c1c(O)cc(O)c2c(=O)cc(-c3ccc(O)cc3)oc12 | Nakaseomyces glabratus | 3.9
CCOC(=O)c1cc(O)c(O)c(O)c1 [ETHYLGALLATE] | Nakaseomyces glabratus | 15

# next compound below
IC50 reading for C[C@@H]1O[C@@H](O[C@H]2C(=O)[C@@H](O)[C@H](C)O[C@@H]2c2c(O)cc3oc(-c4ccc(O)c(O)c4)cc(=O)c3c2O)[C@H](O)[C@H](O)[C@H]1O : 100
